# assayed-system: GST-Aq-NF-kB (Amphimedon queenslandica, UniProt A9Y5G7 2-389)
# Sequence: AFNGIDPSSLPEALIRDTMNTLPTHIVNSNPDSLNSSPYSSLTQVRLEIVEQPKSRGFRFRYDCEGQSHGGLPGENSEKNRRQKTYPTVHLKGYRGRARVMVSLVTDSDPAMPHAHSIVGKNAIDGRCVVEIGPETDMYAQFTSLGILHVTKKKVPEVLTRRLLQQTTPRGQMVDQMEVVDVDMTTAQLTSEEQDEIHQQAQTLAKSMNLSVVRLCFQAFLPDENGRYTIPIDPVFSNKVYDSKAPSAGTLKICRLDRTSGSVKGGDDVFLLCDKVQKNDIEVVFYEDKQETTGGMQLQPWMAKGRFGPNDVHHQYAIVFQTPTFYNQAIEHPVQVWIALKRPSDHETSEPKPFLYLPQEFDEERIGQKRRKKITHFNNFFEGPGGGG
# experimental-details: protein-binding microarray (PBM); PBM: ~300 nM protein, 6 mM HEPES pH 7.8, 80 mM KCl, 0.5 mM EDTA, 0.5 mM EGTA, 6% glycerol, 35 ng/ul poly-dIdC, 1% milk, 1 h, room temperature; Ap Aiptasia and Nv Nematostella (sea anemones) / Co Capsaspora / Aq Amphimedon (sponge) / Dm Drosophila / Hu human; RHD is the Rel homology domain; high values mean tight binding
# condition: dsDNA, one strand shown
Consider the following sequences; for each one, report its binding signal.
Lab book: enter the figure in z-score, no units written.

Exercise: Entry CCGATTAACATCAGGGAAAACAATGATGTTAATCGGGTCTTGATTCGCTTGACGCTGCTG : reported binding signal = ?
Key: 3.34

Exercise: What does the record list as binding signal for CCGATTAACATCACCCTTTTCCCTGATGTTAATCGGGTCTTGATTCGCTTGACGCTGCTG ?
Key: 2.91

Exercise: Reported binding signal for CCGATTAACATCAGGGAAACACCTGATGTTAATCGGGTCTTGATTCGCTTGACGCTGCTG : what is it?
Key: 7.75

Exercise: State the recorded binding signal for this entry: CCGATTAACATCAGGAAAGGCCATGATGTTAATCGGGTCTTGATTCGCTTGACGCTGCTG
Key: 1.31

Exercise: Any idea what binding signal was measured for CCGATTAACATCAAAAGTCCCCATGATGTTAATCGGGTCTTGATTCGCTTGACGCTGCTG ?
Key: 7.23

Exercise: Give the measured binding signal of CCGATTAACATCAGGGGAATGCATGATGTTAATCGGGTCTTGATTCGCTTGACGCTGCTG .
Key: 4.86

Exercise: Given the entry CCGATTAACATCAGGGAAGCCCATGATGTTAATCGGGTCTTGATTCGCTTGACGCTGCTG , report its measured binding signal.
Key: 3.64

Exercise: Data request, read-out binding signal, for CCGATTAACATCACGGGGTTCCCTGATGTTAATCGGGTCTTGATTCGCTTGACGCTGCTG
Key: 6.02

Exercise: Which value of binding signal has been reported for CCGATTAACATCACGGACTGTCCTGATGTTAATCGGGTCTTGATTCGCTTGACGCTGCTG in the records?
Key: 2.22
